# method notes: Membrane permeation across MDCKII-wt monolayers (Transwell)
# conditions: dog, MDCK
endpoint name: Papp A→B at 55 μM
State the value with its unit after it.

Report Papp A→B at 55 μM for Cc1ncc2n1-c1ccc(Cl)cc1C(c1ccccc1F)=NC2 [MDZ, midazolam]
26.5 ×10⁻⁶ cm/s
